B1: ETS1 (parent)
chain: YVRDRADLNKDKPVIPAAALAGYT

Variants of: B1
Test: protein stability index of a GFP-peptide fusion (GPS, HEK-293T) (PSI 1-6); higher = more stable;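 also: lentivirally expressed fusions sorted by FACS into six bins by GFP to DsRed ratio, PSI derived from sequencing read proportions per bin multiplied by bin number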
Conditions: c terminus: a fixed tail appended
EXPERIMENTAL ENDPOINT: protein stability index

VARIANT NOTATION | EXPERIMENTAL ENDPOINT | REPORTED VALUE
P16W | protein stability index | 2.19
I15K | protein stability index | 2.26
P13F | protein stability index | 2.85
K10I | protein stability index | 2.23
V2G | protein stability index | 3.53
A19M | protein stability index | 1.63
P13K | protein stability index | 2.4
V2A | protein stability index | 4.01
R3G | protein stability index | 2.08
D11Y | protein stability index | 2.59
K10F | protein stability index | 3.25
V2L | protein stability index | 3.69
D4M | protein stability index | 3.45
K12Q | protein stability index | 2.48
A6R | protein stability index | 1.72
R5M | protein stability index | 1.56
Y1K | protein stability index | 4.18
A6Y | protein stability index | 2.28
K10M | protein stability index | 2.32
A21V | protein stability index | 2.38
P13S | protein stability index | 1.62
V14C | protein stability index | 2.54
I15L | protein stability index | 2.16
V2M | protein stability index | 3.81
K12R | protein stability index | 2.08
N9M | protein stability index | 1.96
L20R | protein stability index | 2.35
Y1D | protein stability index | 4.43
G22E | protein stability index | 1.77
D11F | protein stability index | 2.42
I15G | protein stability index | 2.09
Y1F | protein stability index | 2.22
A17C | protein stability index | 2.97
Y23D | protein stability index | 1.91
L20V | protein stability index | 2.02
T24E | protein stability index | 2.08
A17N | protein stability index | 1.64
N9T | protein stability index | 2.75
L20P | protein stability index | 2.41
R3K | protein stability index | 2.56
D7T | protein stability index | 3.92
A18G | protein stability index | 2.35
D11I | protein stability index | 2.08
R5H | protein stability index | 1.95
A6H | protein stability index | 1.87
D4Q | protein stability index | 1.57
T24K | protein stability index | 2.81
D4K | protein stability index | 2.07
L20M | protein stability index | 2.45
L20Y | protein stability index | 3.18
D4R | protein stability index | 2.1
A17Y | protein stability index | 2.86
T24M | protein stability index | 2.67
R3F | protein stability index | 2.33
A6G | protein stability index | 2.49
K12C | protein stability index | 2.13
V14F | protein stability index | 2.99
A17K | protein stability index | 1.98
V14K | protein stability index | 2.34
A21Q | protein stability index | 1.95
P16S | protein stability index | 1.64
A17I | protein stability index | 2.52
K12M | protein stability index | 1.9
D7Y | protein stability index | 2.37
Y23T | protein stability index | 2.26
D4F | protein stability index | 2.32
V2I | protein stability index | 2.17
A21T | protein stability index | 2.52
K10L | protein stability index | 2.62
A18T | protein stability index | 1.93
P16C | protein stability index | 2.57
A18H | protein stability index | 2.18
R3S | protein stability index | 2.12
I15E | protein stability index | 1.77
Y23L | protein stability index | 2.58
D4C | protein stability index | 3.5
D7M | protein stability index | 2.6
P16R | protein stability index | 3.04
N9C | protein stability index | 2.48
D11A | protein stability index | 2.28
L20Q | protein stability index | 2.79
D4L | protein stability index | 2.03
I15H | protein stability index | 2.29
G22W | protein stability index | 2.55
L8C | protein stability index | 1.96
K10A | protein stability index | 2.58
P13E | protein stability index | 1.74
R5Q | protein stability index | 1.57
A6E | protein stability index | 2.27
Y23K | protein stability index | 1.46
A21Y | protein stability index | 2.74
